- testedOn: T1, rat MASP-2cf CCP1-CCP2-SP (rat, UniProt Q9JJS8 298-685)
- T1 construct: range 298-685; Mw 42309 Da; also called rat MASP-2 catalytic fragment
- assayText: SPR, target immobilised
Where no end group is shown, it is not given here.
Lab note: compare Relative affinity against 3 fold vs EVO2. Equal or greater, write yes (1). Smaller, write no (0).

IN: API: above_or_equal(metric=Relative affinity, cutoff=3 fold vs EVO2) for item EVO2c (designed binder, not fully specified; cysteine pairing not given here, Modified TFPI-D2 Kunitz domain; made as m1) KPDFCFLEEDPGPCRAVKRRYFYNNQTKQCERFYYGGCLGNMNNFETLEECKNICEDG
OUT: no (0)
